These entries and their values trace back to ChEMBL document CHEMBL4680342.

# System: PC-3
# protocol description: cells
# experimental conditions: Homo sapiens, PC-3, 48 h
# Description: Cytotoxicity against human PC-3 cells assessed as reduction in cell viability incubated for 48 hrs by Hoechst-33342 staining based cell counting method (Rvb > 25 microM)
Could you please mark class 1 for values of IC50 below 8 µM and class 0 for values at or above it?

record_smiles=Clc1cccc(Nc2ncc3cccc(OCc4cn(-c5ccc(Br)cc5)nn4)c3n2)c1 cat="class 0"
record_smiles=COc1cccc2c1C(=O)c1c(O)c3c(c(O)c1C2=O)C[C@@](O)(C(=O)CO)C[C@@H]3O[C@H]1C[C@H](N)[C@H](O)[C@H](C)O1 cat="class 1"
record_smiles=COc1cccc(-n2cc(COc3cccc4cnc(Nc5cccc(Cl)c5)nc34)nn2)c1 cat="class 0"
record_smiles=Clc1ccc(-n2cc(COc3cccc4cnc(Nc5cccc(Cl)c5)nc34)nn2)cc1 cat="class 0"
record_smiles=CC(=O)O[C@H]1C(=O)[C@@]2(C)[C@H]([C@H](OC(=O)c3ccccc3)[C@]3(O)C[C@H](OC(=O)[C@H](O)[C@@H](NC(=O)c4ccccc4)c4ccccc4)C(C)=C1C3(C)C)[C@]1(OC(C)=O)CO[C@@H]1C[C@@H]2O cat="class 1"

Hi there! Is IC50 for `Clc1cccc(Nc2ncc3cccc(OCc4cn(Cc5c(Cl)cccc5Cl)nn4)c3n2)c1` below 8 µM, do you know?
class 1
